System: T1, human GIP receptor (human, UniProt P48546 22-466)
T1 sequence (looked up): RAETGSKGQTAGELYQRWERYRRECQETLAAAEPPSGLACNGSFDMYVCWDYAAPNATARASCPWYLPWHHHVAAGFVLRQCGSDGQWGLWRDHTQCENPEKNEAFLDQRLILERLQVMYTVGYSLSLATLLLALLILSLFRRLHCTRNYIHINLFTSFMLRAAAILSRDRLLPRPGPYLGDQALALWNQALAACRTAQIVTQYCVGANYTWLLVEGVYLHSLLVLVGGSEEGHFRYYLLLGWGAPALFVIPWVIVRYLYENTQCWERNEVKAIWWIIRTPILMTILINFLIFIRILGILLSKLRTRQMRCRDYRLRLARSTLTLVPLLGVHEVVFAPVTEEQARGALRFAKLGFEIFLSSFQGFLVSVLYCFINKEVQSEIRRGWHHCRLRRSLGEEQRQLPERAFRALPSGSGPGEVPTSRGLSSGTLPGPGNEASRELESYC
Assay text: cell-based or functional assay
Bridges are numbered along the chain shown (N, C = ends). Where no end group is shown, it is not given here. [ ]: non-standard residue; d: D form. The star is where a group is joined. Acetyl(2-(4-imidazolyl)) = O=C(Cc1c[nH]cn1)*; Aib = CC(C)(N)C(=O)O
Property label: In vitro activity relative to native peptide (%) vs. GIP

[[record]]
binder = "H[Aib]QGTFTSDVSSYLDGQAQKEFIAWLVKGC [triple agonist of SEQ ID NO: 2]"
value_qualifier = "<"
endpoint_value = 0.1

[[record]]
binder = "{Acetyl(2-(4-imidazolyl))}-[Aib]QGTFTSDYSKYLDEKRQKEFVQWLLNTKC (bridge 15-19) [triple agonist of SEQ ID NO: 88]"
value_qualifier = "<"
endpoint_value = 0.1

[[record]]
binder = "{Acetyl(2-(4-imidazolyl))}-[Aib]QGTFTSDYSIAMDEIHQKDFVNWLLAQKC (bridge 15-19) [triple agonist of SEQ ID NO: 92]"
value_qualifier = "="
endpoint_value = 0.4

[[record]]
binder = "Y[Aib]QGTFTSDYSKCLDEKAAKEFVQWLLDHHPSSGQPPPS (bridge 16-20) [triple agonist of SEQ ID NO: 68]"
value_qualifier = "="
endpoint_value = 107

[[record]]
binder = "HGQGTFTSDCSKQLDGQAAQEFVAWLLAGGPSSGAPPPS [triple agonist of SEQ ID NO: 44]"
value_qualifier = "<"
endpoint_value = 0.1

[[record]]
binder = "Y[Aib]QGTFTSDYSKYLDECRAKDFVQWLLDHHPSSGQPPPS (bridge 16-20) [triple agonist of SEQ ID NO: 66]"
value_qualifier = "="
endpoint_value = 17.2

[[record]]
binder = "[Acetyl(2-(4-imidazolyl))][Aib]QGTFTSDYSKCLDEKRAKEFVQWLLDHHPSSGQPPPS (bridge 16-20; not fully specified) [triple agonist of SEQ ID NO: 74]"
value_qualifier = "="
endpoint_value = 1

[[record]]
binder = "H[Aib]QGTFTSDYSKYLCEKRQKEFVQWLLNGGPSSGAPPPSG (bridge 16-20) [triple agonist of SEQ ID NO: 36]"
value_qualifier = "="
endpoint_value = 0.2

[[record]]
binder = "Y[Aib]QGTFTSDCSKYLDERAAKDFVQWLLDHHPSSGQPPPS (bridge 16-20) [triple agonist of SEQ ID NO: 72]"
value_qualifier = "="
endpoint_value = 1.6

[[record]]
binder = "H[Aib]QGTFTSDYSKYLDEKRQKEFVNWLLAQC (bridge 16-20) [triple agonist of SEQ ID NO: 56]"
value_qualifier = "="
endpoint_value = 0.8

[[record]]
binder = "[Acetyl(2-(4-imidazolyl))]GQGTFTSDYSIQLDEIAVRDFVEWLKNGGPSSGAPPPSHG [triple agonist of SEQ ID NO: 14]"
value_qualifier = "<"
endpoint_value = 0.1

